experiment: Chlorine dioxide compatibility: ClO2 decrease in 200 ppm ClO2 test samples containing an additive (UV/Vis absorption or titration); type: physicochemical
readoutLabel: ClO2 decrease @ 8 hrs (%)

> print(dat)
                                   compound  recordedresult
1    CCOC(C)=O [compound 16, Ethyl Acetate]               3
2                                   CC(C)=O            0.04
3                                      NCCO              92
4                         COc1ccc(C=O)cc1OC             100
5  O.O.O=C1NS(=O)(=O)c2ccccc21.[Na] [compound 9, Sodium saccharin Dihydrate]               3
6                    CC1=CC(=O)NS(=O)(=O)O1             100
7  C/C=C/C=C/C(=O)[O-].[K+] [compound 35, Potassium Sorbate]              99

* * *

experiment: Chlorine dioxide compatibility: ClO2 decrease in 200 ppm ClO2 test samples containing an additive (UV/Vis absorption or titration); type: physicochemical; conditions: Table 2; 200 ppm ClO2 test sample, single additive at listed wt. %; interpolated to 8 hours
// boundary case: ClO2 decrease @ 8 hrs equal to 2% maps to 0; strictly smaller maps to 1

> print(dat)
                                   molecule  labelclass
1          OCC(O)CO [compound 15, Glycerol]           1
2  OCc1ccccc1 [compound 12, Benzyl Alcohol]           0
3  CC12CCC(CC1)C(C)(C)O2 [compound 6, Eucalyptol]           0
4  CC(C)[C@@H]1CC[C@@H](C)CC1=O [compound 4, Menthone]           0
5  OC[C@H]1O[C@H](O[C@]2(CCl)O[C@H](CCl)[C@@H](O)[C@@H]2O)[C@H](O)[C@@H](O)[C@H]1Cl [compound 10, Sucralose]           0
6                CCO [compound 17, Ethanol]           0
7  CCNC(=O)C1CC(C)CCC1C(C)C (stereo not shown) [compound 5, Ethyl Menthane Carboxamide]           0
8  CC(C)[C@@H]1CC[C@@H](C)C[C@H]1O [Comp. 1, L-menthol]           1

All figures here come from patent US9101562B2.
